Kindly find below IC50 information for Non-receptor tyrosine-protein kinase TYK2 (Homo sapiens) taken from the literature.

Previously resolved entries follow.
IN: So what IC50 did `Cn1ccc(-c2cc3nccn3c(-c3cnn(C4(CCF)CN(S(=O)(=O)C(F)(F)F)C4)c3)n2)cc1=O` get with Non-receptor tyrosine-protein kinase TYK2 (Homo sapiens)?
OUT: 10 to 100 nM

IN: API: value(readout= IC50, system= Non-receptor tyrosine-protein kinase TYK2 (Homo sapiens), query= `NC(=O)c1nc(-c2cccc(O)c2)nc2c1[nH]c(=O)n2-c1c(Cl)cccc1Cl` )
OUT: 100 to 5000 nM

IN: # returns recorded IC50 (system: Non-receptor tyrosine-protein kinase TYK2 (Homo sapiens)) for `N#CCCN1CC2(CCC(c3cccc4nc(NC(=O)C5CC5)nn34)CC2)C1`
OUT: 371 nM

IN: Quick check: IC50 on Non-receptor tyrosine-protein kinase TYK2 (Homo sapiens), item `CC(C)(C)OCCO[C@H]1CNc2cc(Nc3ncc(C(N)=O)c(NC4CC4)n3)ccc2OC1` ?
OUT: < 10 nM

IN: Identify the measured IC50 of `Cn1cc(-c2cc3nccn3c(-c3ccn(C4(CC#N)CN(CC(F)(F)F)C4)n3)n2)cn1` for Non-receptor tyrosine-protein kinase TYK2 (Homo sapiens).
OUT: 10 to 100 nM

Continuing:
IN: Notebook entry, Non-receptor tyrosine-protein kinase TYK2 (Homo sapiens) assay: IC50 of `CC(C)COc1ccc2cc1COc1ccc(cc1)NC(=O)c1ccc(c([N+](=O)[O-])c1)-c1ccnc(n1)N2` = ?
OUT: > 10000 nM

IN: # returns recorded IC50 (system: Non-receptor tyrosine-protein kinase TYK2 (Homo sapiens)) for `C[C@H]1C[C@@H](Nc2c(-c3ncc(S(C)(=O)=O)s3)cnc3[nH]ccc23)CN(C(=O)CC#N)C1`
OUT: ≤ 10 nM
